Provide the reported activity change, negative = inhibition of each item.
assayInfo: NFAT Signaling Pathway (AID 444);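 note: carbachol stimulus at about its EC50 of 1 µM final; % is set by controls: 0 for no effect and ±100 for the full control effect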
particulars: Jurkat NFAT-bla M1, carbachol, beta-lactamase ratio, 5 h; at 7.69 µM (top of the series) unless noted
Results filed as inconclusive are left out.
The reply should contain only the number, in %.

Lookup: Would you mind telling me what activity change, negative = inhibition value was observed for `O=c1c(-c2ccccc2)nc2cnc(Oc3ccccc3)nc2n1Cc1cccs1` ?
Found: -0.0107

Lookup: Would you mind telling me what activity change, negative = inhibition value was observed for `COc1cccc(-c2nc(N3CCN(C)CC3)c3ccccc3n2)c1` ?
Found: 12.1

Lookup: Would you mind telling me what activity change, negative = inhibition value was observed for `COc1ccc(-n2c(=O)cnc3cnc(N4CCN(C)CC4)nc32)cc1` ?
Found: -9.46

Lookup: Would you mind telling me what activity change, negative = inhibition value was observed for `Cc1cnc(CNc2ccnc(-c3c(C)noc3C)n2)cn1` ?
Found: 10.3

Lookup: Would you mind telling me what activity change, negative = inhibition value was observed for `COc1ccc(-n2c(=O)c(C)nc3cnc(OC)nc32)cc1` ?
Found: 3.92

Lookup: Would you mind telling me what activity change, negative = inhibition value was observed for `CN(C)c1ccnc(-c2ccccc2C(F)(F)F)n1` ?
Found: 6.88

Lookup: Would you mind telling me what activity change, negative = inhibition value was observed for `COc1ccc(-n2c(=O)c(-c3ccccc3)nc3cnc(N4CCN(C)CC4)nc32)cc1` ?
Found: 5.17

Lookup: Would you mind telling me what activity change, negative = inhibition value was observed for `O=C(Nc1cccc(F)c1)N1CCC2(CC1)CCN(C(=O)c1cnccn1)CC2` ?
Found: 20.5

Lookup: Would you mind telling me what activity change, negative = inhibition value was observed for `COc1ncc2nc(-c3ccccc3)c(=O)n(-c3ccccc3)c2n1` ?
Found: 3.29

Lookup: Would you mind telling me what activity change, negative = inhibition value was observed for `O=C(Nc1cccc(F)c1)N1CC2(CCN(C(=O)c3csnn3)CC2)C1` ?
Found: 16.8

Lookup: Would you mind telling me what activity change, negative = inhibition value was observed for `N#Cc1cccc(NC(=O)N2CC[C@@]3(CCCN(C(=O)c4ccncc4)C3)C2)c1` ?
Found: 1.61
